Recorded values, source patent US20250034266A1.

# STUDY TARGET: T1, human CCR8 (human, UniProt P51685 1-355)
# T1 construct: whole, on cells; also called hCCR8
# T1 sequence (P51685 whole entry): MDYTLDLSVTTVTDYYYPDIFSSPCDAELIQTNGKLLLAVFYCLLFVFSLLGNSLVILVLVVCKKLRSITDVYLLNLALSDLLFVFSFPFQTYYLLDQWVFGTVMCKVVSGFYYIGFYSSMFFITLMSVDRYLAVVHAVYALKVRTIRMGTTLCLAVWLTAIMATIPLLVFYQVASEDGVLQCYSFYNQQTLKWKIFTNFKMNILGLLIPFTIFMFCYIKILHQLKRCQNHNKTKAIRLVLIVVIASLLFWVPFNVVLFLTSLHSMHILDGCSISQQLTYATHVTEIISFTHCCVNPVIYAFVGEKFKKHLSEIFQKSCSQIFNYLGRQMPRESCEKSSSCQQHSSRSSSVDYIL
# PROTOCOL TEXT: FACS, competition with CCL1 on CHO-K1-human CCR8 cells
MEASURED PROPERTY: Max Inhibition (%)
Write down the numeric answer in % and omit the unit.

Which Max Inhibition (%) value is on record for Hu149-22 (antibody, human IgG1, V domains shown, human IgG1) VH: EVQLVESGGGLVQPGGSLKLSCAASGFTFNTYAMNWVRQASGKGLEWVGRIRSKSNFYATAYAASVKGRFTISRDDSKNTAYLQMNSLKTEDTAVYYCTRGREYGSAYAMDYWGQGTLVTVSS VL: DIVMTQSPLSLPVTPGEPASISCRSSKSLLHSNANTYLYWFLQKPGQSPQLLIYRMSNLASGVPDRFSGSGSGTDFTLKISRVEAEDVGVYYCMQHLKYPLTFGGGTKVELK ? 101
